Just for reference, patent US20050282824A1 is where these values come from.

Tested on: SPI1 type III protein secretion of SipB by S. enterica
protocol: Secondary assay: Type III-dependent protein secretion of the SipB polypeptide by S. enterica
Assay type: cell-based
condition-info: Salmonella enterica, read-out: SipB IC50(uM)
assay-metric: IC50

[in] # query: IC50 of entry O=C(N[C@@H](CSCc1ccccc1)C(=O)O)c1cc(N2CCN(c3ccccc3)CC2)nc(-c2ccc(Cl)c(Cl)c2)n1 [Compound 20]
[out] > 100 µM

[in] // query: CN(C)c1ccc(-c2nc(C(=O)N[C@@H](CSCc3ccccc3)C(=O)O)cc(N3CCN(c4nccc(C(F)(F)F)n4)CC3)n2)cc1 [Compound 50]
[out] > 100 µM

[in] Then CN1CCN(c2nc(C(=O)N[C@@H](CSCc3ccccc3)C(=O)O)cc(N3CCN(c4nccc(C(F)(F)F)n4)CC3)n2)CC1 [Compound 44] ?
[out] > 100 µM
